Tested on: S. pullorum 7913
Assay type: cell-based, Salmonella pullorum
Conditions: 7913, 24 h
Where no end group is shown, it is not given here.
Below, each entry is listed alongside its reported MBC.
Response body: numeric value in µM, unit text excluded.

Substance | MBC [µM]
LRRLRLLRL-NH2 [L12] | 64
LLRLRRRLL-NH2 [L2] | 32
WWWRRRRWW-NH2 [W4] | 8

Q: Suppose we examine the substance WRRWRWRWW-NH2 [W3] ; what MBC value has been reported?
A: 4

Q: Suppose we examine the substance WRRRWWWWR-NH2 [W6] ; what MBC value has been reported?
A: 16

Q: Suppose we examine the substance RWWWWRRWR-NH2 [W10] ; what MBC value has been reported?
A: 32

* * *

Below, each entry is listed alongside its reported MIC.
Tested on: S. typhimurium 14028
Format: cell-based, Salmonella typhimurium
Conditions: 14028, 24 h
Where no end group is shown, it is not given here.
Response body: numeric value in µM, unit text excluded.

For orientation, consider the following solved cases.
Substance | MIC, µM
WRRRWWWWR-NH2 [W6] | 8
LLRLRRRLL-NH2 [L2] | 64

Attention now turns to another entry.
Q: Suppose we examine the substance RRWWWRWRW-NH2 [W8] ; what MIC value has been reported?
A: 4

* * *

Test system: E. coli O78
Format: cell-based, Escherichia coli
Settings: O78, 24 h
Where no end group is shown, it is not given here.
Below, each entry is listed alongside its reported MIC.
Response body: numeric value in µM, unit text excluded.

Substance | Units | MIC
LRRRRLLLL-NH2 [L11] | µM | 64

Q: Suppose we examine the substance RWRWRWRWW-NH2 [W5] ; what MIC value has been reported?
A: 4

* * *

Below, each entry is listed alongside its reported MBC.
System: Listeria monocytogenes CGMCC 1.1075
Format: cell-based
Details: CGMCC 1.1075, 24 h
Where no end group is shown, it is not given here.
Response body: numeric value in µM, unit text excluded.

Substance | Test Readout | Units | Experimental Value
RLRLRRLLL-NH2 [L9] | MBC | µM | 32
RWRWRRWWW-NH2 [W9] | MBC | µM | 8
RRLLLRLRL-NH2 [L8] | MBC | µM | 8
WWRWRRRWW-NH2 [W2] | MBC | µM | 32
WWWRRRRWW-NH2 [W4] | MBC | µM | 32
RWWWWRRWR-NH2 [W10] | MBC | µM | 4

Q: Suppose we examine the substance RRWWWWRRW-NH2 [W7] ; what MBC value has been reported?
A: 4

Q: Suppose we examine the substance WRRRRWWWW-NH2 [W11] ; what MBC value has been reported?
A: 8

Q: Suppose we examine the substance WRRWRWRWW-NH2 [W3] ; what MBC value has been reported?
A: 8

Q: Suppose we examine the substance LRRLRLLRL-NH2 [L12] ; what MBC value has been reported?
A: 32

* * *

System: Listeria monocytogenes CGMCC 1.1075
Format: cell-based
Details: CGMCC 1.1075, 24 h
Method: The antimicrobial activities of the peptides were measured using a method adapted from the National Committee for Clinical Laboratory Standards (NCCLS) with some modifications ([Chou et al., 2016]). The specific procedure for these assays has been previously described. […] After incubation for 24 h at 37°C, the MICs were determined to be the lowest peptide concentration that inhibited 95% of the bacterial growth by monitoring the absorbance at 492 nm using a microplate reader. […]
Where no end group is shown, it is not given here.
Below, each entry is listed alongside its reported MIC.
Response body: numeric value in µM, unit text excluded.

For orientation, consider the following solved cases.
Substance | Units | Experimental Value
WRRRRWWWW-NH2 [W11] | µM | 4
WRRWRWWRW-NH2 [W12] | µM | 2

Attention now turns to another entry.
Q: Param readout = MIC; param system = Listeria monocytogenes CGMCC 1.1075; param query = LRRLRLLRL-NH2 [L12] ; response: value
A: 16

* * *

Tested on: E. coli O78
Format: cell-based, Escherichia coli
Conditions: O78, 24 h
Where no end group is shown, it is not given here.
Test Readout: MIC (µM)
Response body: numeric value in µM, unit text excluded.

Substance | MIC [µM]
RWRWRRWWW-NH2 [W9] | 4
RLRLRRLLL-NH2 [L9] | 32
RRLLLLRRL-NH2 [L7] | 64
RWWWWRRWR-NH2 [W10] | 4
RLLLLRRLR-NH2 [L10] | 16
RRWWWWRRW-NH2 [W7] | 8
WRRRRWWWW-NH2 [W11] | 8

Attention now turns to another entry.
Q: Suppose we examine the substance LRRLRLLRL-NH2 [L12] ; what MIC value has been reported?
A: 64

* * *

Test system: Listeria monocytogenes CGMCC 1.1075
Assay type: cell-based
Details: CGMCC 1.1075, 24 h
Where no end group is shown, it is not given here.
Test Readout: MBC (µM)
Response body: numeric value in µM, unit text excluded.

For orientation, consider the following solved cases.
Substance | Units | MBC
WWRWWRRRW-NH2 [W1] | µM | 16
LRRRRLLLL-NH2 [L11] | µM | 16
RRWWWRWRW-NH2 [W8] | µM | 4

Q: Suppose we examine the substance RLLLLRRLR-NH2 [L10] ; what MBC value has been reported?
A: 32

Q: Suppose we examine the substance WRRWRWWRW-NH2 [W12] ; what MBC value has been reported?
A: 4

* * *

Test system: Listeria monocytogenes CGMCC 1.1075
Format: cell-based
Conditions: CGMCC 1.1075, 24 h
Method: The antimicrobial activities of the peptides were measured using a method adapted from the National Committee for Clinical Laboratory Standards (NCCLS) with some modifications ([Chou et al., 2016]). The specific procedure for these assays has been previously described. […] After incubation for 24 h at 37°C, the MICs were determined to be the lowest peptide concentration that inhibited 95% of the bacterial growth by monitoring the absorbance at 492 nm using a microplate reader. […]
Where no end group is shown, it is not given here.
Below, each entry is listed alongside its reported MIC.

For orientation, consider the following solved cases.
Substance | Target System | Test Readout | Experimental Value
LLRLRRRLL-NH2 [L2] | Listeria monocytogenes CGMCC 1.1075 | MIC | >64 µM
LRRRLLLLR-NH2 [L6] | Listeria monocytogenes CGMCC 1.1075 | MIC | >64 µM

Attention now turns to another entry.
Q: Suppose we examine the substance LLRLLRRRL-NH2 [L1] ; what MIC value has been reported?
A: > 64 µM

* * *

System: Listeria monocytogenes CGMCC 1.1075
Format: cell-based
Settings: CGMCC 1.1075, 24 h
Where no end group is shown, it is not given here.
Below, each entry is listed alongside its reported MIC.
Response body: numeric value in µM, unit text excluded.

For orientation, consider the following solved cases.
Substance | MIC [µM]
WRRWRWRWW-NH2 [W3] | 4
WWRWRRRWW-NH2 [W2] | 16
RLLLLRRLR-NH2 [L10] | 16
LRRLRLRLL-NH2 [L3] | 16

Q: Suppose we examine the substance RWWWWRRWR-NH2 [W10] ; what MIC value has been reported?
A: 2

Q: Suppose we examine the substance WWWRRRRWW-NH2 [W4] ; what MIC value has been reported?
A: 16

Q: Suppose we examine the substance RWRWRRWWW-NH2 [W9] ; what MIC value has been reported?
A: 4
